Reference source: paper doi:10.1101/2024.11.16.623948

molecular target: FLAG-Ago1 (Drosophila melanogaster, UniProt A1Z9J5 1-950); assay: RBNS; miR-184 guide; RBNS: 20 mM HEPES-KOH pH 7.9, 100 mM KOAc, 3.5 mM Mg(OAc) (magnesium acetate), 0.05% CHAPS, 2 mM DTT, 8% glycerol, BSA, tRNA, 25 C 2 h; filter binding: 25 mM HEPES-KOH pH 7.9, 110 mM KOAc, 3.5 mM magnesium acetate, 2 mM DTT, BSA, tRNA, 8% glycerol, 25 C 2 h; competition: 18 mM HEPES-KOH pH 7.4, 100 mM KOAc, 3 mM magnesium acetate, 5 mM DTT, 0.01% IGEPAL, tRNA, 25 C 1 h; conditions: protein: recombinant; tags: FLAG; g3-g8
Sequence (A1Z9J5 entry or part of it): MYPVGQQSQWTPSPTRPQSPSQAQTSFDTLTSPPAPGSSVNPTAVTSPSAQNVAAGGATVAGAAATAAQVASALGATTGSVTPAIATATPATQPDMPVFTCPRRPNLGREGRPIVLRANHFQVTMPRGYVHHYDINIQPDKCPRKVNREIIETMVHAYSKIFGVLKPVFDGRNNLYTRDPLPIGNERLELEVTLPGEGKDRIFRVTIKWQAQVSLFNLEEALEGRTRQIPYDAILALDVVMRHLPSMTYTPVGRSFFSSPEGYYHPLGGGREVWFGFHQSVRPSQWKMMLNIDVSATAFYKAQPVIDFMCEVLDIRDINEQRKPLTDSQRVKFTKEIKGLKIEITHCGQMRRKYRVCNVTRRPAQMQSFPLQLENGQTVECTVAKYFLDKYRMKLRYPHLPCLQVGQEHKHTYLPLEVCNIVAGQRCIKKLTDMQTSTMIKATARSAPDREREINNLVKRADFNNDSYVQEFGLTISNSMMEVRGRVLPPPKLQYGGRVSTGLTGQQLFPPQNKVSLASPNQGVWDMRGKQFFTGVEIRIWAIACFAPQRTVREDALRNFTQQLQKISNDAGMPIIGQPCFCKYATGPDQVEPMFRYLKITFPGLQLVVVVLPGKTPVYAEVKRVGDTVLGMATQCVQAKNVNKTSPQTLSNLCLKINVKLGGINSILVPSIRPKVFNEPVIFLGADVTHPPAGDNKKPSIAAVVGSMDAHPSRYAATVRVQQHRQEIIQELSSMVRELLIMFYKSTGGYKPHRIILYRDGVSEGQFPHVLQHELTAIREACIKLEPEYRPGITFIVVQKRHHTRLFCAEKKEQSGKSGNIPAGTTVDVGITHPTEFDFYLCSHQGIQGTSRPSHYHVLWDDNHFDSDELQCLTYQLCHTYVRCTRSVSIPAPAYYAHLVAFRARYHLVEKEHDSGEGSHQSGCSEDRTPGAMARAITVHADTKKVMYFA
recorded.metric: pKd
Value format note: pKd is -log10 of concentration (mol/L); just state the number.

binder miR-184 / 6mer-m8 (dsRNA, guide 5' phosphate) RNA 1: UGGACGGAGAACUGAUAAGGGC RNA 2: UCCGUC , pKd observed: 9.49
